- Subject of test: T1, hnRNPA2 LCD deltaNAID1 (human, UniProt P22626 200-353, del239-306)
- T1 sequence: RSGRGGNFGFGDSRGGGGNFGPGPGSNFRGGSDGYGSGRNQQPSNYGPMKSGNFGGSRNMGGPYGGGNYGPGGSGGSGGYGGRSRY
- Assay protocol: MST; 10 mM MgCl2; MST: 20 mM HEPES pH 7.5, 10 mM MgCl2, 0.05% Tween-20; 420 nM labelled U30 with protein titrated, or labelled peptide with RNA titrated; temperature not stated
- Assay setup: protein: recombinant; (stated for LCD only)
Property label: pKd
pKd here is simply -log10 of the concentration when that concentration is written in mol/L.

Measured pKd, UUUUUUUUUUUUUUUUUUUUUUUUUUUUUU (ssRNA) [U30 (labelled)] : 4.39
